- SYSTEM: Acid-sensing ion channel 1/2 (Mus musculus, UniProt Q6NXK8+Q925H0)
- PROTOCOL DESCRIPTION: Inhibition of pH 6.25-stimulated mouse ASIC1a/2a […] expressed in CHOK1 cells assessed as reduction in channel activation by VSD fluorescence assay
- Assay type: cell-based
# key: entry, value: IC50

INSERT INTO assay_data (compound, recorded_value) VALUES
  ('Cc1nn(Cc2ccc(CN)cc2)c(C)c1-c1ccc(F)cc1', '> 30 µM'),
  ('Cc1nn(-c2cccc(CN)c2)c(C)c1-c1ccc(F)cc1', '> 30 µM'),
  ('Cc1nn(-c2ccc(C(C)N)cc2)c(C)c1-c1ccc(F)cc1 (centres undefined)', '> 30 µM'),
  ('Cc1nn(-c2ncnc3c2CNC3)c(C)c1-c1cccc(F)c1', '> 30 µM'),
  ('NCc1ccc(-n2cc(-c3ccc(F)cc3)cn2)cc1', '> 30 µM'),
  ('Cc1nn(-c2ccc(CN)cc2)c(C)c1-c1ccc(C(F)(F)F)cc1', '> 30 µM'),
  ('Cc1nn(-c2ccc3c(c2)NCC3)c(C)c1-c1ccc(F)cc1', '> 30 µM'),
  ('Cc1nn(-c2ccc(CCN)cc2)c(C)c1-c1ccc(F)cc1', '> 30 µM');

Enquiry: Need IC50, item Cc1nn(-c2ccc(CN)cc2)c(C)c1-c1cccc(F)c1
Return: > 30 µM

Enquiry: Need IC50, item Cc1nn(-c2ccc(CN)cc2)c(C)c1-c1ccc(F)cc1
Return: 10.9 µM

Enquiry: Need IC50, item Cc1ccc(-c2c(C)nn(-c3ccc(CN)cc3)c2C)cn1
Return: > 30 µM

Enquiry: Need IC50, item Cc1nn(-c2ccc(CN)cn2)c(C)c1-c1ccc(F)cc1
Return: 8.5 µM

Enquiry: Need IC50, item Cc1nn(-c2ccc(C#N)cc2)c(C)c1-c1ccc(F)cc1
Return: > 30 µM

Enquiry: Need IC50, item Cc1nn(-c2ccc3c(c2)CNC3)c(C)c1-c1cccc(F)c1
Return: 11.3 µM
